- SUBJECT OF TEST: OX2 (Homo sapiens, UniProt O43614)
- Sequence (O43614 1-444): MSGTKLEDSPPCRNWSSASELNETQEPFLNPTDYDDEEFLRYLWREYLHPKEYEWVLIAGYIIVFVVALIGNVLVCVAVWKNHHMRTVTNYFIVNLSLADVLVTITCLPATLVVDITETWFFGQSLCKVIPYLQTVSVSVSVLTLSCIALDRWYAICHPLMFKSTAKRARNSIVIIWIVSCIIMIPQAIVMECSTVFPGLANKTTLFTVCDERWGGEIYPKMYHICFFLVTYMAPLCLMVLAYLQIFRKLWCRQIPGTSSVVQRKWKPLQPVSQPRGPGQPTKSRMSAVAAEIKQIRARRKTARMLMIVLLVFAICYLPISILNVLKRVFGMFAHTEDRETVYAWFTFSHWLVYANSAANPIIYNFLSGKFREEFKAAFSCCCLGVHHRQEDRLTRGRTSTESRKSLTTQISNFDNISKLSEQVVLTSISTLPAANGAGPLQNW
- MEASUREMENT DESCRIPTION: Measurement of orexin receptor-binding ability ([125I]-OX-A, cell membranes, OX2)
- Parameters: expressed in transfected cells; host or cells: CHO cells (membrane preparation)
- EXPERIMENTAL PARAMETERS: membranes of recombinant CHO cells expressing OX2, 0.2 nM [125I]-OX-A; read-out: OX2 (IC50)
So basically: is IC50 under 30 nM? Then T. Not under? Then F.

Example results:
Cc1ncc(OC[C@@]2(c3ccccc3)C[C@H]2C(=O)Nc2cc(C(F)(F)F)ccn2)c(C)n1 | F
COc1cc([C@]2(COc3cnc(C)nc3C)C[C@H]2C(=O)Nc2cc(C)c(F)cn2)ccc1F | F
Cc1ncc(OC[C@@]2(c3ccccc3)C[C@H]2C(=O)Nc2cc3ccccc3cn2)c(C)n1 | T
COCc1nc(C)ncc1OCC1(c2cccc(Cl)c2)CC1C(=O)Nc1ccc(F)cc1 (centres unmarked) | T
COc1ccccc1C1(COc2cnc(C)nc2C)CC1C(=O)Nc1cccnc1 (centres unmarked) | F
Cc1ncc(OC[C@@]2(c3ccccc3)C[C@H]2C(=O)Nc2cc(F)cc(F)c2)c(C)n1 | T
Cc1ncc(OC[C@@]2(c3cc(F)cc(F)c3)C[C@H]2c2nc3ncccc3[nH]2)c(C)n1 | F

Could you now consider this next compound?
Hello, I'm reviewing records and need to know if IC50 of COCc1nc(C)ncc1OC[C@@]1(c2ccc(F)c(F)c2)C[C@H]1C(=O)Nc1ccc(F)c(F)c1 is below 30 nM. Could you check?
T

---

- SUBJECT OF TEST: OX2 (Homo sapiens, UniProt O43614)
- MEASUREMENT DESCRIPTION: Measurement of antagonism (PLAP assay), OX2
- Type: cell-based
- Parameters: expressed in transfected cells; host or cells: HEK-293 cells, expression vector pBabeCLIH
QUANTITY KIND: Ki (nM)
API: value field is a number in nM; no unit string.

Cc1ncc(OC[C@@]2(c3ccccc3)C[C@H]2C(=O)Nc2ccncc2)c(C)n1 [Example 67] | 57
Cc1ncc(OC[C@@]2(c3ccccc3)C[C@H]2C(=O)Nc2ccccn2)c(C)n1 [Example 65] | 60
CCc1nc(C)ncc1OC[C@@]1(c2cccc(F)c2)C[C@H]1C(=O)Nc1ccccn1 [Example 240] | 0.91

Now look at this entry.
Form field: reported Ki of Cc1ncc(OC[C@@]2(c3ccccc3F)C[C@H]2C(=O)Nc2ccc(F)cn2)c(C)n1 [Example 263]
8.6

---

- SUBJECT OF TEST: OX1 (Homo sapiens, UniProt O43613)
- Sequence (O43613 1-425): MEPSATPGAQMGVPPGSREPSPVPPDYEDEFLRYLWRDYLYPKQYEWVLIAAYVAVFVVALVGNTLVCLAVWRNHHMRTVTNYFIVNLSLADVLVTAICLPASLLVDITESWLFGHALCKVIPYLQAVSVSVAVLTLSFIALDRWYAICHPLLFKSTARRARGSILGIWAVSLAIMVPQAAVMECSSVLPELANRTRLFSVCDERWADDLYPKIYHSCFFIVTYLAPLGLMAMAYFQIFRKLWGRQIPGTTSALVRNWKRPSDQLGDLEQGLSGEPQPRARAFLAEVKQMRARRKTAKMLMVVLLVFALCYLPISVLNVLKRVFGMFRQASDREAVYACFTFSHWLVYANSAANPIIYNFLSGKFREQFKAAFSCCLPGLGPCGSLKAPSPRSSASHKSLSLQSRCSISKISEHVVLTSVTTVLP
- MEASUREMENT DESCRIPTION: Measurement of orexin receptor-binding ability ([125I]-OX-A, cell membranes, OX1)
- Parameters: expressed in transfected cells; host or cells: CHO cells (membrane preparation)
- EXPERIMENTAL PARAMETERS: membranes of recombinant CHO cells expressing OX1, 0.2 nM [125I]-OX-A; read-out: OX1 (IC50)
QUANTITY KIND: pIC50
The read-out pIC50 is expressed as -log10 of concentration in moles per litre.

CCc1nc(C)ncc1OC[C@@]1(c2ccccc2)C[C@H]1C(=O)Nc1ccc(C#N)cn1 [Example 120] | 6.91
COc1cncc(NC(=O)[C@@H]2C[C@@]2(COc2cnc(C)nc2C)c2ccccc2)c1 [Example 61] | 6.06

Now look at this entry.
Form field: reported pIC50 of CCc1nc(C)ncc1OC[C@@]1(c2ccc(F)cc2)C[C@H]1C(=O)Nc1cc(C)c(F)cn1 [Example 248]
8.00

---

- SUBJECT OF TEST: OX2 (Homo sapiens)
- MEASUREMENT DESCRIPTION: Measurement of orexin receptor-binding ability ([125I]-OX-A, cell membranes, OX2)
- Design: expressed in transfected cells; host or cells: CHO cells (membrane preparation)
- EXPERIMENTAL PARAMETERS: membranes of recombinant CHO cells expressing OX2, 0.2 nM [125I]-OX-A; read-out: OX2 (IC50)
QUANTITY KIND: IC50 (nM)
API: value field is a number in nM; no unit string.

Form field: reported IC50 of Cc1ncc(OC[C@@]2(c3cc(F)cc(F)c3)C[C@H]2c2nc3ncc(F)cc3[nH]2)c(C)n1 [Example 306]
8

Form field: reported IC50 of Cc1ncc(N(C)C[C@@]2(c3ccccc3)C[C@H]2C(=O)Nc2cc(C)c(Cl)cn2)c(C)n1 [Example 301]
28

Form field: reported IC50 of Cc1ncc(OC[C@@]2(c3ccccc3)C[C@H]2C(=O)Nc2cccc(-c3nnc[nH]3)c2)c(C)n1 [Example 38]
29

Form field: reported IC50 of CCc1nc(C)ncc1OC[C@@]1(c2ccccc2)C[C@H]1C(=O)Nc1ccc(Cl)cn1 [Example 121]
3.1

---

Each item that follows carries a reported pIC50.
- SUBJECT OF TEST: OX1 (Homo sapiens, UniProt O43613)
- Sequence (O43613 1-425): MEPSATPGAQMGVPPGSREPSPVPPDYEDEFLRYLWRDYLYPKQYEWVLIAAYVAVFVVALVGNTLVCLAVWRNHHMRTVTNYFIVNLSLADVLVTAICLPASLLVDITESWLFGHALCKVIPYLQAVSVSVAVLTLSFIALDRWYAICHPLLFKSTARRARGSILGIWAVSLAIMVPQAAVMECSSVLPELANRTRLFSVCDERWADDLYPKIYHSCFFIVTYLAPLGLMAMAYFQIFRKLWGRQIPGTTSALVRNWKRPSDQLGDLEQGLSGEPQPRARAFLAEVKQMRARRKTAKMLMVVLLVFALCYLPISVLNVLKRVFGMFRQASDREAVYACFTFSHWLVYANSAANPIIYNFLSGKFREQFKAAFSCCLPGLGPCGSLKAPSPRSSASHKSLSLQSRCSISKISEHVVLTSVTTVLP
- MEASUREMENT DESCRIPTION: Measurement of orexin receptor-binding ability ([125I]-OX-A, cell membranes, OX1)
- Design: expressed in transfected cells; host or cells: CHO cells (membrane preparation)
The read-out pIC50 is expressed as -log10 of concentration in moles per litre.

Cc1ncc(OCC2(c3ccccc3Cl)CC2C(=O)Nc2ccc(F)cn2)c(C)n1 (centres unmarked) | 6.99

Form field: reported pIC50 of Cc1ncc(OC[C@@]2(c3ccccc3)C[C@H]2C(=O)Nc2cc(C(F)F)ccn2)c(C)n1
6.67

Form field: reported pIC50 of COc1cccc(C2(COc3cnc(C)nc3C)CC2C(=O)Nc2ccc(C#N)cn2)c1 (centres unmarked)
6.47

Form field: reported pIC50 of Cc1ncc(OC[C@@]2(c3cccc(F)c3)C[C@H]2C(=O)Nc2ccc(C#N)cn2)c(C)n1
7.49

Form field: reported pIC50 of Cc1ncc(OC[C@@]2(c3ccsc3)C[C@H]2C(=O)Nc2ccc(F)cn2)c(C)n1
6.58

Form field: reported pIC50 of Cc1ncc(OC[C@@]2(c3ccccc3)C[C@H]2C(=O)Nc2cccc(F)c2)c(C)n1
7.05

Form field: reported pIC50 of COCc1nc(C)ncc1OC[C@@]1(c2cc(F)cc(OC)c2)C[C@H]1C(=O)Nc1cccc(F)c1
7.68

Form field: reported pIC50 of Cc1ncc(OC[C@@]2(c3cc(F)cc(F)c3)C[C@H]2C(=O)Nc2ccc(F)cn2)c(C)n1
8.15
